The measured values listed here are drawn from paper PMC12040169.

For each record, write down the corresponding viability at 28.5 h, 10 µM.
- assay_procedure: in vitro
- condition: human, hela cells, % viability
// return the numeric value with its unit appended

A selection of reference data follows.
CN1CCN(C)C(COc2nc3cc(Cl)c(Cl)cc3nc2N2CCCC2)C1 (stereo not drawn) = 92%
c1csc(CN2CCC(c3cc4nccnc4[nH]3)CC2)c1 = 88.9%
CCCOC1CCCN(C(=O)c2cncc(F)c2)C1 (stereo not drawn) = 95%
Cc1ncsc1CCOc1ccc(C(F)(F)F)cn1 = 101%
COc1ccc2ncc(C(=O)O)c(Nc3ccccc3C)c2c1 [CBK269522C] = 104%
CS(=O)(=O)N1CCCc2cc(-c3csc(N4CCCC4)n3)ccc21 = 114%

// for each molecule in input: emit viability at 28.5 h, 10 µM
1. Cc1ccc2ccccc2c1CN(/N=N/c1nonc1C)c1nonc1C
2. CC(C)NC1=NC(=O)C(CC(=O)Nc2ccccc2)S1 (stereo not drawn)
3. O=C(Cc1ccccc1[N+](=O)[O-])Nc1ccc(S(=O)(=O)N2CCCC2)cc1
4. Cc1c(CN(C)CC2CCN(C)C2)cnn1Cc1ccccc1 (stereo not drawn)
5. COc1ccc([N+](=O)[O-])cc1COc1ccc2ccc(=O)oc2c1

Output line:
99.6%
90.7%
87.1%
105%
106%

Report viability at 28.5 h, 10 µM for every entry below.
1. CC(CNC(=O)C(C)Oc1ccccc1)CN(C)C (stereo not drawn)
2. COc1ccc(S(=O)(=O)N(C)CC(=O)Nc2cccc(F)c2)cc1Cl
3. Cc1cc(-c2cc(C)n[nH]2)[nH]n1
4. Cc1ccc(OCc2nnc(SCc3cccc(C#N)c3)n2Cc2ccccc2)cc1C
5. O=C(NC1(C#Cc2cnc3ccccc3c2)CCCCC1)C1CCCO1 (stereo not drawn)
6. O=C1N[C@H]2CCCN(C(=O)Cn3cccnc3=O)[C@H]2CCCCCOc2ccccc21

Output line:
1: 94%; 2: 90%; 3: 107%; 4: 90.5%; 5: 81.9%; 6: 109%

Quick one: give me viability at 28.5 h, 10 µM for each item below, same order please.
1. COc1cccc(-c2nn(CCC#N)cc2C(=O)N2CCCCC2)c1
2. Cc1nn(C)cc1-c1cncn1Cc1ccc2c(c1)CCCO2
3. CC12CCCN1CCCN2C(=O)c1c[nH]c2ccccc12 (stereo not drawn)
4. Cc1nonc1/N=N/N(CC(=O)N1CCOCC1)c1nonc1C

Output line:
["101%", "90.4%", "87.2%", "103%"]

Batch: viability at 28.5 h, 10 µM for all items listed.
1. COc1ccc([C@H](O)[C@@H]2CCCN(C(=O)OC(C)(C)C)C2)cc1
2. COc1ccccc1C1CCCN1Cc1c(C)nc2ccccn12 (stereo not drawn)
3. CS(=O)(=O)c1ccc(-c2cccc(COC3CCN(C(=O)Cc4ccc(F)cc4F)CC3)c2)cc1
4. O=C(O)Cc1ccc(NC(=O)CN2C(=O)c3ccccc3C2=O)cc1
5. COc1cc(F)ccc1-c1nc(N)cc2cccnc12
6. O=C(CSc1nnc(-c2ccncc2)n1-c1ccccc1)N/N=C/c1coc2ccccc2c1=O
7. Cc1sc(NC(=O)COc2ccccc2)c(C(N)=O)c1-c1ccccc1
8. O=S(=O)(Nc1ccc2c(ccn2Cc2ccccc2)c1)c1ccc(S(=O)(=O)c2ccccc2)s1

Output line:
["83.4%", "91.9%", "87.8%", "104%", "88.9%", "101%", "97.8%", "114%"]
